pIC50 values for the compounds below.
Molecular target: Receptor tyrosine-protein kinase erbB-2 (Homo sapiens)
Sequence (P04626 whole entry): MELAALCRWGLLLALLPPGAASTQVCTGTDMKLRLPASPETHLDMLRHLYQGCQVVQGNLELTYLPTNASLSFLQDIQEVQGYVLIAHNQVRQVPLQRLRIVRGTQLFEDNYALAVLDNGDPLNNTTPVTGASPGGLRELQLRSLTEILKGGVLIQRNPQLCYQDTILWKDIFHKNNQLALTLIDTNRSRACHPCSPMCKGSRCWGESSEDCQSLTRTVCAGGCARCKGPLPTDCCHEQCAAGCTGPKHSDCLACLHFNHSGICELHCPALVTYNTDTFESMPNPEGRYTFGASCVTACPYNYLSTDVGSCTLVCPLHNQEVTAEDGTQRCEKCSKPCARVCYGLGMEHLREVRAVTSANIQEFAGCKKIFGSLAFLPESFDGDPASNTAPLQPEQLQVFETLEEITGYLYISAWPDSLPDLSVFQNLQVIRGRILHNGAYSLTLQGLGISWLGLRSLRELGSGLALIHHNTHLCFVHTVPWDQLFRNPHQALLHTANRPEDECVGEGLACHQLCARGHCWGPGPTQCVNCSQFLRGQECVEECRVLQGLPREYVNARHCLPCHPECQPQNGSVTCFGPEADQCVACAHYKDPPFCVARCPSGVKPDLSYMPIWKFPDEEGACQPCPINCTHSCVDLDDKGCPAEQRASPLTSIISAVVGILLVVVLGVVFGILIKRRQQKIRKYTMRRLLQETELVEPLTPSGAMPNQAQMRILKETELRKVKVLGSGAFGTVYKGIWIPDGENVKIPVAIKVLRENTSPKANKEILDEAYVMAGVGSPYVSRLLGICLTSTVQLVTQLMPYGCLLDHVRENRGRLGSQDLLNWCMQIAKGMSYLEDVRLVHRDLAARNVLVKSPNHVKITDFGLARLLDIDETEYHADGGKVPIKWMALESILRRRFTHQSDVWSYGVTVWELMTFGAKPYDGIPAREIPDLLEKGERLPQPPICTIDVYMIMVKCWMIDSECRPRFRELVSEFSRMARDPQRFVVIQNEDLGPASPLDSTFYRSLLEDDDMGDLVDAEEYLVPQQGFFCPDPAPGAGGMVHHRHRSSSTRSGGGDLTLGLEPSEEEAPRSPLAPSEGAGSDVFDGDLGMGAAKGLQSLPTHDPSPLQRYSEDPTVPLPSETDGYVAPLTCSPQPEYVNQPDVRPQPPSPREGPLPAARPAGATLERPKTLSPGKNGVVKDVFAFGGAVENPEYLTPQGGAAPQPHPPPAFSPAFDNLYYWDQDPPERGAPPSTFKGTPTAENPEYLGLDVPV
Assay: Inhibition of erB2 autophosphorylation in clone 24 cells
Format: cell-based
pIC50 field: float, defined as -log10 of concentration (mol/L).

Enquiry: // fetch pIC50 given entry OC1CCN(CCOc2n[nH]c3ncnc(Nc4ccc(OCc5ccccn5)c(Cl)c4)c23)CC1
Return: 6.87

Enquiry: // fetch pIC50 given entry COC1CCN(CCOc2n[nH]c3ncnc(Nc4ccc(OCc5ccccn5)c(Cl)c4)c23)CC1
Return: 7.09

Enquiry: // fetch pIC50 given entry Cc1cc(Nc2ncnc3[nH]nc(OCCN4CCC(O)CC4)c23)ccc1OCc1cccc(F)c1
Return: 6.97

Enquiry: // fetch pIC50 given entry COc1cc(Nc2ncnc3[nH]nc(OCCN4CCC(O)CC4)c23)ccc1OCc1ccccn1
Return: 5.83

Enquiry: // fetch pIC50 given entry Clc1cc(Nc2ncnc3n[nH]c(OCCN4CCCCCO4)c23)ccc1OCc1ccccn1
Return: 6.83

====

Test: Volume of distribution at steady state in rat at 0.4 mg/kg, iv and 1 mg/kg, po
Assay type: ADME, organism-based
Conditions: in vivo, read-out: Vdss
Parameter: Vd
Give your result as the value with the unit written after it.

Enquiry: // fetch Vd given entry CN1CCN(CCOc2n[nH]c3ncnc(Nc4ccc(OCc5ccccn5)c(Cl)c4)c23)CC1
Return: 4.5 L/kg

====

System: P-gp
Assay: Apparent permeability from apical to basolateral side of the dog MDCK cells expressing P-gp transporter
Type: ADME, cell-based, Canis lupus familiaris
Details: MDCK-MDR1
Parameter: Papp A→B (×10⁻⁶ cm/s)
The answer is to be given in ×10⁻⁶ cm/s; state only the numeric part.

Enquiry: // fetch Papp A→B given entry CN1CCN(CCOc2n[nH]c3ncnc(Nc4ccc(OCc5ccccn5)c(Cl)c4)c23)CC1
Return: 9.5

====

Test: Protein binding in Beagle dog plasma assessed as unbound ligand at 0.2 mg/kg, iv and 0.4 mg/kg, po
Assay type: ADME, organism-based, Canis lupus familiaris
Details: read-out: PPB
Parameter: fraction unbound

Enquiry: // fetch fraction unbound given entry CN1CCN(CCOc2n[nH]c3ncnc(Nc4ccc(OCc5ccccn5)c(Cl)c4)c23)CC1
Return: 0.21

====

Assay: Half life in male and female Beagle dog at 0.2 mg/kg, iv and 0.4 mg/kg, po
Type: ADME, organism-based, Canis lupus familiaris
Conditions: both, in vivo
Parameter: half-life (h)
The answer is to be given in h; state only the numeric part.

Enquiry: // fetch half-life given entry CN1CCN(CCOc2n[nH]c3ncnc(Nc4ccc(OCc5ccccn5)c(Cl)c4)c23)CC1
Return: 2.4

====

Molecular target: Receptor tyrosine-protein kinase erbB-2 (Homo sapiens)
Test: Inhibition of erB2 autophosphorylation in clone 24 cells
Assay type: cell-based
pIC50 values for the compounds below.
pIC50 field: float, defined as -log10 of concentration (mol/L).

Enquiry: // fetch pIC50 given entry Clc1cc(Nc2ncnc3[nH]nc(OCCN4CCNCC4)c23)ccc1OCc1ccccn1
Return: 6.89

Enquiry: // fetch pIC50 given entry Cc1cc(Nc2ncnc3[nH]nc(OCCN4CCC(O)CC4)c23)ccc1OCc1ccccn1
Return: 6.16

Enquiry: // fetch pIC50 given entry COc1cc(Nc2ncnc3[nH]nc(OCCN4CCC(O)CC4)c23)ccc1OCc1cccc(F)c1
Return: 6.21

Enquiry: // fetch pIC50 given entry Cc1ccc(Oc2ccc(Nc3ncnc4[nH]nc(OCCN5CCC(O)CC5)c34)cc2C)cn1
Return: 6.38

Enquiry: // fetch pIC50 given entry Clc1cc(Nc2ncnc3[nH]nc(OCCCN4CCOCC4)c23)ccc1OCc1ccccn1
Return: 6.36

Enquiry: // fetch pIC50 given entry Cc1ccc(Oc2ccc(Nc3ncnc4[nH]nc(OCCN5CCC(O)CC5)c34)cc2Cl)cn1
Return: 6.74
